Literature-derived pIC50 for ERAP1 (Homo sapiens, UniProt Q9NZ08) follows.
pIC50: −log10 of the molar value.

# annotated cases, reported pIC50 shown
COC1CCC1Oc1cc(Cl)c(C#N)cc1NS(=O)(=O)c1cc(C(=O)O)ccc1C1CC1 (racemic)
> 9.00
COc1ccc(C(=O)O)cc1S(=O)(=O)Nc1cc(C(F)(F)F)ccc1C1CCCN(C)C1 (centres unmarked)
< 6.30
N#Cc1ccc(-c2ccccn2)c(NS(=O)(=O)c2cc(C(=O)O)ccc2C2CCC2)c1
> 6.30
O=C(O)c1ccc(C2CC2)c(S(=O)(=O)Nc2cc(-c3ccns3)c(Cl)cc2-c2ccccn2)c1
> 6.30

Consider the record given below.
Sample Cn1nccc1-c1cc(NS(=O)(=O)c2cc(C(=O)O)ccc2C2CC2)c(-c2ccccn2)cc1F ; pIC50 observed: > 6.30
